Source of measurements: patent US20050095240A1

Measured IC50 of individual entries
# TGT: zebrafish NaCT (Danio rerio, UniProt A0A2R8QQN0, K78Q)
# Sequence (A0A2R8QQN0 2-582 K78Q): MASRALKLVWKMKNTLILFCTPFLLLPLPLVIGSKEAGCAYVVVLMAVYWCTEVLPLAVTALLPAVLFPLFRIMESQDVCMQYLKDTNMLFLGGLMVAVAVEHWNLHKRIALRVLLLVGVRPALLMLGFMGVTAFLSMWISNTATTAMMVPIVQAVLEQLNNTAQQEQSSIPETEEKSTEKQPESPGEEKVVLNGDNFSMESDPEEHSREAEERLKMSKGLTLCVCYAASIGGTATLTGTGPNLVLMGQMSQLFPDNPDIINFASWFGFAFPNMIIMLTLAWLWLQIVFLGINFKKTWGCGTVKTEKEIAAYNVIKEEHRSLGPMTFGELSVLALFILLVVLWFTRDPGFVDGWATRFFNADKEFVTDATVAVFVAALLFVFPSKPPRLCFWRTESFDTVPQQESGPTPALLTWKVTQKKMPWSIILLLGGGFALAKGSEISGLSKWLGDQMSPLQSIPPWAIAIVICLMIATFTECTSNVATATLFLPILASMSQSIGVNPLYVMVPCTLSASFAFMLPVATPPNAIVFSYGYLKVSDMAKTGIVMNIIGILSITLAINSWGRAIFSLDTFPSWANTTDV
# TEST_SUMMARY: Citrate uptake via zebrafish NaCT expressed in HRPE cells

>  <COMPOUND>
O=C(O)CCC(=O)O [Succinate, succinate]

>  <MEASURE_UNIT>
µM

>  <IC50>
51

$$$$
>  <COMPOUND>
O=C(O)CC(O)(CC(=O)O)C(=O)O [Citrate]

>  <MEASURE_UNIT>
µM

>  <IC50>
30

$$$$
